- Study Target: Bcl-xL (Homo sapiens, UniProt Q07817)
- Sequence (Q07817 whole entry): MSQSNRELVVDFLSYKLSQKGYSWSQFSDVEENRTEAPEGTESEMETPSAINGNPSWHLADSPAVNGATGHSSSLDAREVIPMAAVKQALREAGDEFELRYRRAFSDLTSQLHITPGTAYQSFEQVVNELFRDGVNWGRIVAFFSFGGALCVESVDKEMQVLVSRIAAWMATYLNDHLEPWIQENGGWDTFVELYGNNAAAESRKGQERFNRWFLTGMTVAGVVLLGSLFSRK
- Assay type: binding
- Assay Context: global SORTCERY ranks re-indexed from 1 to 19 for the 19 chosen sequences
Parameter: reindexed ranking

INSERT INTO measurements (sequence_text, study_target, reported_value) VALUES
  ('IGAQLRRMADDV', 'Bcl-xL (Homo sapiens, UniProt Q07817)', 7),
  ('YAQEIGRNGDEF', 'Bcl-xL (Homo sapiens, UniProt Q07817)', 16),
  ('VAQELRRYGDEY', 'Bcl-xL (Homo sapiens, UniProt Q07817)', 4),
  ('AAQELRRYGDEY', 'Bcl-xL (Homo sapiens, UniProt Q07817)', 8),
  ('YGAQLDRYAQDF', 'Bcl-xL (Homo sapiens, UniProt Q07817)', 10),
  ('VGAQFHRFANDF', 'Bcl-xL (Homo sapiens, UniProt Q07817)', 17),
  ('FGAQLGRVASDF', 'Bcl-xL (Homo sapiens, UniProt Q07817)', 14),
  ('VGAQLRRIADDV', 'Bcl-xL (Homo sapiens, UniProt Q07817)', 1),
  ('FGAQLNRIAEDF', 'Bcl-xL (Homo sapiens, UniProt Q07817)', 6),
  ('YAQELQRYGDET', 'Bcl-xL (Homo sapiens, UniProt Q07817)', 13),
  ('VAQELRRIGDEV', 'Bcl-xL (Homo sapiens, UniProt Q07817)', 9),
  ('AGAQLHRFADDY', 'Bcl-xL (Homo sapiens, UniProt Q07817)', 12),
  ('IGAQFGRFADDF', 'Bcl-xL (Homo sapiens, UniProt Q07817)', 5);
